// reported CC50 at 3 days for each item listed
Test: in vitro
Format: cell-based
Conditions: human, HepG2 or HepG2.117 cells, ATPlite, 3-days incubation (not marked with *), mean value
OBSERVED_PROPERTY: CC50 at 3 days (µM)

COMPOUND	OBSERVED_PROPERTY	ENDPOINT_UNIT	VALUE_COMPARATOR	NUMBER
CNC(=O)c1ccc(-n2c(N[C@H](C)c3ccc4c(c3)OCO4)nc3c(c2=O)C[C@@H](C)N(C(=O)c2ccc(Cl)c(Cl)c2)C3)cc1 (single isomer, unassigned) [Compound C414a]	CC50 at 3 days	µM	>	50
CNC(=O)c1ccc(-n2c(NCc3nnc4n3CCC4)nc3c(c2=O)C[C@@H](C)N(C(=O)c2ccc(Cl)c(Cl)c2)C3)cc1 [Compound C483]	CC50 at 3 days	µM	>	25
CNC(=O)c1ccc(-n2c(NC(C)Cn3cnnc3)nc3c(c2=O)C[C@@H](C)N(C(=O)c2ccc(Cl)c(Cl)c2)C3)cc1 (stereo partly drawn) [Compound C481]	CC50 at 3 days	µM	>	50
CNC(=O)c1ccc(-n2c(N[C@@H](C)c3ccc(F)cc3)nc3c(c2=O)C[C@@H](C)N(C(=O)c2ccc(Cl)c(C(F)(F)F)c2)C3)cc1 [Compound C651]	CC50 at 3 days	µM	=	8.8
CNC(=O)c1csc(-n2c(NC(C)C)nc3c(c2=O)C[C@@H](C)N(C(=O)c2ccc(Cl)c(Cl)c2)C3)n1 [Compound C379]	CC50 at 3 days	µM	=	22.1
CNC(=O)c1ccc(-n2c(NC(C)C)nc3c(c2=O)C[C@@H](C)N(C(=O)c2cc(Br)c4nccn4c2)C3)cc1 [Compound C495]	CC50 at 3 days	µM	>	50
CNC(=O)c1ccc(-n2c(N[C@H](C)c3ccc(OC(F)F)cc3)nc3c(c2=O)C[C@@H](C)N(C(=O)c2ccc(Cl)c(Cl)c2)C3)cc1 [Compound C411a]	CC50 at 3 days	µM	=	47.4
CNC(=O)c1ccc(-n2c(NC(C)C(C)(C)C)nc3c(c2=O)C[C@@H](C)N(C(=O)c2ccc(Cl)c(Cl)c2)C3)cc1 (stereo partly drawn) [Compound C459]	CC50 at 3 days	µM	=	28.6
CNC(=O)c1ccc(-n2c(NC(C)C)nc3c(c2=O)C[C@@H](C)N(C(=O)c2ccc4c(c2)CNC4=O)C3)cc1 [Compound C494]	CC50 at 3 days	µM	>	50
CNC(=O)c1ccc(-n2c(NC3CCOC3)nc3c(c2=O)C[C@@H](C)N(C(=O)c2ccc(Cl)c(Cl)c2)C3)cc1 (stereo partly drawn) [Compound C559]	CC50 at 3 days	µM	>	50
CNC(=O)c1ccc(-n2c(NC3(c4ccccc4)CC3)nc3c(c2=O)C[C@@H](C)N(C(=O)c2ccc(Cl)c(Cl)c2)C3)cc1 [Compound C662]	CC50 at 3 days	µM	=	30.5
CNC(=O)c1ccc(-n2c(N[C@H](C)c3cccnc3)nc3c(c2=O)C[C@@H](C)N(C(=O)c2ccc(Cl)c(Cl)c2)C3)cc1 (single isomer, unassigned) [Compound C377a]	CC50 at 3 days	µM	>	50

====

// reported EC50 for each item listed
Tested on: HBV (HepG2.117 cell line, inducibly HBV producing)
Experiment: Anti-HBV activity: intracellular HBV DNA by real-time PCR in HepG2.117 cells after 3 days of treatment
Assay type: cell-based, hepatitis B virus
Conditions: Hepatitis B virus, HepG2.117, 72 h, HepG2.117 cells, 3 days of treatment, intracellular HBV DNA by real-time PCR; mean value; read-out: EC50 (μM, mean value)
OBSERVED_PROPERTY: EC50 (µM)

COMPOUND	ENDPOINT_UNIT	NUMBER
CC(C)Nc1nc2c(c(=O)n1-c1ccc(-c3n[nH]c(Br)n3)cc1)C[C@@H](C)N(C(=O)c1ccc(Cl)c(Cl)c1)C2 [Compound C249]	µM	0.49
CC[C@H]1Cc2c(nc(NC(C)C)n(-c3ccc(S(C)(=O)=O)cc3)c2=O)CN1C(=O)c1ccc(Cl)c(Cl)c1 (single isomer, unassigned) [Compound C158B]	µM	2.13
COc1ccc(CNc2nc3c(c(=O)n2-c2cc(OC)cc(S(C)(=O)=O)c2)CCN(C(=O)c2ccc(Cl)c(Cl)c2)C3)cc1 [Compound C87]	µM	1.55
CNC(=O)c1ccc(-n2c(N[C@H](CCO)C3CC3)nc3c(c2=O)C[C@@H](C)N(C(=O)c2ccc(Cl)c(Cl)c2)C3)cc1 (single isomer, unassigned) [Compound C283]	µM	5.52
CNC(=O)c1ccc(-n2c(N[C@@H](C)c3cccc(F)c3)nc3c(c2=O)C[C@@H](C)N(C(=O)c2ccc(Cl)c(Cl)c2)C3)cc1 [Compound C306]	µM	0.08
COc1ccccc1-n1c(N[C@@H](C)CO)nc2c(c1=O)CCN(C(=O)c1ccc(Cl)c(Cl)c1)C2 (single isomer, unassigned) [Compound C62Ba]	µM	3.65
CC(C)Nc1nc2c(c(=O)n1-c1ccc(N3CC[C@H](O)C3)cc1)C[C@@H](C)N(C(=O)c1ccc(Cl)c(Cl)c1)C2 [Compound C200]	µM	0.2
CC(C)Nc1nc2c(c(=O)n1-c1ccc(C(=O)NC3CC3)cc1)C[C@@H](C)N(C(=O)c1ccc(Cl)c(Cl)c1)C2 [Compound C167]	µM	0.06
CC(C)NC(=O)c1cnc(-n2c(NC(C)C)nc3c(c2=O)C[C@@H](C)N(C(=O)c2ccc(Cl)c(C(F)(F)F)c2)C3)cn1 [Compound C694]	µM	0.05
COc1ccccc1-n1c(N2CCOCC2)nc2c(c1=O)CCN(C(=O)c1ccc(Cl)c(Cl)c1)C2 [Compound C40]	µM	11
CNC(=O)c1ccc(-n2c(NC(C)C)nc3c(c2=O)CCN(C(=O)c2ccc(Cl)c(Cl)c2)C3)cc1Cl [Compound C210]	µM	0.27
CC(C)Nc1nc2c(c(=O)n1-c1ccc(C(=O)NCCN3CCOCC3)cc1)C[C@@H](C)N(C(=O)c1ccc(Cl)c(Cl)c1)C2 [Compound C203]	µM	0.15
